Target: T1, VSTM5 monomer (UniProt A8MXK1 29-147, limits assumed)
T1 construct: also called monomeric VSTM5 antigen; VSTM5 antigen
T1 sequence (looked up): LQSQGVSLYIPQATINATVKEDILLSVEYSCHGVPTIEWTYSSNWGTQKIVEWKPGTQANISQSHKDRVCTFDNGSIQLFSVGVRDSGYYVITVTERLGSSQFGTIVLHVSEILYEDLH
Assay: SPR, VSTM5 monomer binding to the IgG (equilibrium binding constant)
pKd: −log10 of the molar value.
Decision: pKd >= 7 yields YES, all other cases yield NO.

49-01.F01 (antibody, V domains shown) VH: EVQLVESGGGVVKPGESLRLLCTASGLSFNKYSINWVRQAPGGGLEWVSSIESGSGHIYYADSLEGRFTISRDNAKNSVTLEMNSLRVEDTALYYCVSGPEDKWLLQLYFESWGQGTLVTVSS VL: EIVLTQSPATLSLSPGERATLSCRTSQSSPSDNLAWYQHKPGQAPRLLIYGGSNRATGIPARFSGSGSGTDFTLTISSLEPEDFAVYYCQQYGSSPLTFGGGTKVDIKR | YES
47-01.D05 (antibody, V domains shown) VH: QITLKESGPTLVKPTQTLTLTCTFSGFSLSTSGVGVGWIRQPPGKALEWLALIYWDDDKRYSPSLKSRLTITKDTSKNQVVLTMTNMDPVDTATYYCAHSGSVGYALYFDYWGQGTLVTVSS VL: QAVLTQPPSSSASPGESARLTCTLPSDINVRYYNIYWYQQKPGSPPRYLLYYQSDSHKGRGSGVPSRFSGSKDTSANTGILLISGLQSEDEADYYCMIWASNGSGVLGGGTQLTVLG | YES
50-01.B01 (antibody, V domains shown, also called 50-01.801) VH: QVQLQESGPGLMKPSQTLSLTCTVSGDSITRGSSYWSWIRQSDGKGLEWIGHIYSGGDTDYNPALKSRVTISADASRGQFLLRLTSMTAADTAVYYCARDRGAYGMDVWGQGTTVTVSS VL: QPVLTQSSSASASLGASVKLTCTLSSEHDRYAIAWLQQKPEKGPRYLMKVNSDGSHRKGDGIPDRFSGSSSGAERYLTISRLQSEDEADYYCQTWGIGIRVFGGGTQLTVLG | NO
49-01.F05 (antibody, V domains shown) VH: QVQLQQWGAGLLKPSETLSLTCAVYGGSFSGYYWSWIRQPPGKGLEWIGEINHSGSTNYNPSLKSRVTISVDTSKNQFSLKLSSVTAADTAVYYCARGWRGGSFMDVWGQGTTVTVSS VL: QSALTQPRSVSGSPGQSVTISCTGTSSDVGGYNYVSWYQQHPGKAPKLMIYDVIKRPSGVPDRFSGSRSGNTASLTISGLQAEDEADYYCCSYAGTHWVFGGGTKLTVLG | NO
50-01.A04 (antibody, V domains shown) VH: QVQLVQSGAEVKKPGESLKISCKGSGYDFNNYWIGWVRQTPEKGLEWMGIVYPGDHPGDYHIRYGPSFQGQVTISADRSITTAYLQWRNLKASDTAMYYCARLGSSKDLDYWGQGTLVTVSS VL: EIVLTQSPATLSLSPGERATLSCRASQSVSGHLDWYQQKPGQSPRLLIYDASNRATGIPARFSGSGSGTDFSLTISSLEPEDFAVYYCQHRSNWPWTFGQGTKVEIKR | YES
